test: Human HepG2 cell viability assay in 384 well format; type: toxicity, cell-based; set-up: dose 125 nL, time 70.5 hour; concentration not given beside the values; details: HepG2 cells, read-out: Inhibition

{"compound": "Fc1ccc(C2CN(c3ncnc4[nH]ncc34)CCO2)cc1 (centres undefined)", "cytotoxicity at 70.5 h [%]": 12.2}
{"compound": "Cc1oc(NC(=O)C(C)N2CCN(CCO)CC2)c(C#N)c1C (centres undefined)", "cytotoxicity at 70.5 h [%]": -2.61}
{"compound": "Cc1nccn1C1CCCN(C(=O)c2ccc3c(c2)COC3)C1 (centres undefined)", "cytotoxicity at 70.5 h [%]": -3.92}
{"compound": "CC(=O)NCc1ccc(C(=O)NC2CCc3nc(C)cn3C2)o1 (centres undefined)", "cytotoxicity at 70.5 h [%]": -3.32}
{"compound": "CN1CCN(C[C@@H]2OC[C@H]3CN(Cc4cccc(F)c4)CC[C@H]32)CC1", "cytotoxicity at 70.5 h [%]": 2.68}
{"compound": "COc1ccccc1N1CCC(CNCc2c(C)nn(C)c2OC)C1 (centres undefined)", "cytotoxicity at 70.5 h [%]": 0.53}
{"compound": "CCN(Cc1ccc2c(c1)OCO2)c1ncc(S(N)(=O)=O)s1", "cytotoxicity at 70.5 h [%]": 1.59}
{"compound": "CCn1nc(C)c(CNC(=O)c2nnc3ccc(OC)cc3n2)c1C", "cytotoxicity at 70.5 h [%]": -3.67}
{"compound": "CN(C)c1cc(C(=O)NC2(c3cccc(F)c3)CCOCC2)ccn1", "cytotoxicity at 70.5 h [%]": -1.02}
{"compound": "CCc1cnc(N2CCc3ncnc(N4CCN(C)CC4)c3CC2)nc1", "cytotoxicity at 70.5 h [%]": -3.37}
{"compound": "CCN(CC)CCCNc1nc(C)nc2c1CCN(C)C2", "cytotoxicity at 70.5 h [%]": -1.66}
{"compound": "Cc1cccc(OCCNC(=O)CN2CCN(C)CC2C)c1 (centres undefined)", "cytotoxicity at 70.5 h [%]": 25.2}
{"compound": "CCCOC(=O)N1CCC(c2nnc(Cn3cccn3)n2C2CC2)CC1", "cytotoxicity at 70.5 h [%]": 4.42}
{"compound": "Cc1ccc(C(C(=O)O)N2CCCN(Cc3ccccn3)CC2)c(F)c1 (centres undefined)", "cytotoxicity at 70.5 h [%]": -4.69}
{"compound": "Cc1cccc(OCC(O)CN2CCC(Cn3cccn3)CC2)c1 (centres undefined)", "cytotoxicity at 70.5 h [%]": 22.2}
{"compound": "COC(=O)C(NC(=O)CCc1ccco1)c1cc(F)ccc1F (centres undefined)", "cytotoxicity at 70.5 h [%]": -7.98}
{"compound": "CCc1nn(C)c(Cl)c1CN1C[C@H](NC(=O)CCO)[C@@H](C(C)C)C1", "cytotoxicity at 70.5 h [%]": -5.11}
{"compound": "COCCN1CCC(NCc2c(F)cccc2F)C1 (centres undefined)", "cytotoxicity at 70.5 h [%]": -0.0127}
{"compound": "CN1CCN2CCN(Cc3cnc(NCc4ccccc4)nc3)CC2C1 (centres undefined)", "cytotoxicity at 70.5 h [%]": 24}
{"compound": "CN1CCOC(CNC(=O)C2(c3ccccc3)CCC2)C1 (centres undefined)", "cytotoxicity at 70.5 h [%]": -5.1}
{"compound": "CN1CCCC1c1ccnc(C(=O)N(C)C2CCCCC2)c1 (centres undefined)", "cytotoxicity at 70.5 h [%]": -11.9}
{"compound": "Cc1cc2n(n1)CC(CNCc1ccc(N3CCOCC3)nc1)CN2 (centres undefined)", "cytotoxicity at 70.5 h [%]": -9.07}
{"compound": "CN(C)C(=O)COc1ccccc1CNC1CCc2ncnn2C1 (centres undefined)", "cytotoxicity at 70.5 h [%]": -6.71}
{"compound": "O=C(Nc1nnc[nH]1)C(c1cccc(F)c1)N1CCOCC1 (centres undefined)", "cytotoxicity at 70.5 h [%]": -1.33}
{"compound": "CS(=O)(=O)NC1CCN(C(=O)NCc2cccnc2)CC1", "cytotoxicity at 70.5 h [%]": 2.6}
{"compound": "CNC(=O)COc1ccccc1CNCc1c(C)noc1C", "cytotoxicity at 70.5 h [%]": -3.67}
{"compound": "CC(C)c1cc(NC(=O)Cn2cnc3ccccc3c2=O)[nH]n1", "cytotoxicity at 70.5 h [%]": 104}
{"compound": "CNC(=O)CN1CCOCC2(CCCN(Cc3ccoc3)C2)C1 (centres undefined)", "cytotoxicity at 70.5 h [%]": -8.87}
{"compound": "Cc1cccc(NC(=O)CN2C(=O)CC(C)(C)c3ccccc32)n1", "cytotoxicity at 70.5 h [%]": -8.87}
